assayed-target: JAK2 (Homo sapiens)
Sequence (O60674 whole entry): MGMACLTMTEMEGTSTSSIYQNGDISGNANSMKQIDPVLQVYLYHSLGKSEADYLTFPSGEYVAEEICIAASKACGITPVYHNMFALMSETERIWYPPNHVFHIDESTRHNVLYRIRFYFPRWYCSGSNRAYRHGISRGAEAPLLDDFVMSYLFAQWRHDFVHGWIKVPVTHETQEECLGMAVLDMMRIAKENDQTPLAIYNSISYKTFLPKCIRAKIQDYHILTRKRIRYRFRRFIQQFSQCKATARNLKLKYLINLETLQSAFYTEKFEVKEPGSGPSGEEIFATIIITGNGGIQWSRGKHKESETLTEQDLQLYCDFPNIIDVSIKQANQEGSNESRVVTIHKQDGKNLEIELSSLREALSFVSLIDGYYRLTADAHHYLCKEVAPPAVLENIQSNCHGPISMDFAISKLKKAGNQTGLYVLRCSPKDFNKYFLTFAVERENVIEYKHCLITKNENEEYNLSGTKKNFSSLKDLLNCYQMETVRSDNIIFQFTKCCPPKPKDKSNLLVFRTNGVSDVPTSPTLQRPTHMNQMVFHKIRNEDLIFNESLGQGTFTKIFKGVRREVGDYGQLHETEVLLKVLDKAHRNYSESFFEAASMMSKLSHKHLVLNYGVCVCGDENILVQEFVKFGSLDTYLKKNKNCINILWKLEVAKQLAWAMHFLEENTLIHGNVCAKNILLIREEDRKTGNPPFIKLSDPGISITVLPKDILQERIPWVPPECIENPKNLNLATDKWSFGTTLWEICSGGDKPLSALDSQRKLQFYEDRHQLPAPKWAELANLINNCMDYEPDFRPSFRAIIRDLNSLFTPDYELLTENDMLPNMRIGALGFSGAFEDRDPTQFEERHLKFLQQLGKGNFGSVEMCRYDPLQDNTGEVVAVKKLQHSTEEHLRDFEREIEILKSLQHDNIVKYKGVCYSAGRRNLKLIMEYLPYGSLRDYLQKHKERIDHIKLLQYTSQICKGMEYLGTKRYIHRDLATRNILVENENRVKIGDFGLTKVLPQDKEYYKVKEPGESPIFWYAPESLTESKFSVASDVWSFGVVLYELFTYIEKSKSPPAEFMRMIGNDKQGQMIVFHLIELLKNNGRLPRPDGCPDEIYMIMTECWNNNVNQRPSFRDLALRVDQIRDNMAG
test-details: Inhibition of JAK kinase activity, EZ Reader microfluidic phosphorylation of peptide substrate: JAK2
Type: biochemical
test-settings: JAK2 kinase 1 nM; highest final concentration 10 μM, 1:3 serial dilution, 8 points, duplicates
Excerpt: EZ Reader available from PerkinElmer can be used for detecting the phosphorylation of polypeptide substrates catalyzed by kinases. This device is based on microfluidic separation technology, and can directly detect fluorescence labeled substrates and products. The separation step is achieved in a microfluidic chip by controlling the pressure and electric field intensity. In a kinase experiment, the product conversion rate is generally controlled at 20-30%. […]
metric-name: IC50

Ask: Recorded IC50 for CCC(=O)N1CC(n2cc(-c3ccnc(Nc4cnn(C)c4)n3)cn2)C1 [TDM-180646] , please?
Result: ≥ 10 µM

Ask: Recorded IC50 for CCCCS(=O)(=O)N1CC(CC#N)(n2cc(-c3ccnc(Nc4cnn(C)c4)n3)cn2)C1 [TDM-180807] , please?
Result: 0.1 to 1 µM

Ask: Consider the molecule shown here: Cn1cc(Nc2nccc(-c3cnn(C4CCN(C(=O)CC#N)C4)c3)n2)cn1 (centres unmarked) [TDM-180653] What is its recorded IC50?
Result: 1 to 10 µM

Ask: Requested field: IC50. Item: CCCC(=O)N1CC(n2cc(-c3ccnc(Nc4cnn(C)c4)c3)cn2)C1 [TDM-180640]
Result: ≥ 10 µM

Ask: # query: IC50 of entry Cn1cc(Nc2nccc(-c3ccn(C4(CC#N)CN(S(=O)(=O)CCCF)C4)c3)n2)cn1 [TDM-180854]
Result: < 0.1 µM

Ask: IC50 for Cn1cc(Nc2nccc(-c3cnn(C4(CC#N)CN(S(=O)(=O)Cc5ccccc5)C4)c3)n2)cn1 [TDM-180795] ?
Result: 0.1 to 1 µM

Ask: State the recorded IC50 for this entry: CCS(=O)(=O)N1CC(n2cc(-c3ccnc(Nc4cnn(C)c4)n3)cn2)C1 [TDM-180665]
Result: 1 to 10 µM

More entries:
Ask: What does the record list as IC50 for Cn1cc(Nc2nccc(-c3ccn(C4(CC#N)CN(C(=O)CC#N)C4)c3)n2)cn1 [TDM-180775] ?
Result: 0.1 to 1 µM

Source listed as patent US12509447B2.
